Cited source for all entries: PubChem BioAssay AID488890

- Assay procedure: growth inhibition of non-replicating M. tuberculosis (AID 488890);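 also: plate controls were DMSO cells for no effect and high antibiotic wells for full effect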
- Conditions used: Mycobacterium tuberculosis non-replicating, at 25 µM, stronger effect = higher value
About 1,300 (0.41%) of roughly 320,000 compounds were called active. About 3% were inconclusive and are not listed. Not all results are given here. Measured potencies and affinities stand elsewhere.
Value type: inhibition (%)
Reply with just the number (in %).

Some compounds with known inhibition results, for comparison:
{"Compound": "Cc1ccccc1Cn1cc(S(=O)(=O)c2ccc(C(C)C)cc2)c(=O)c2cc3c(cc21)OCO3", "inhibition, %": 11.4}
{"Compound": "c1ccc(C2C3=C(Nc4ncnn42)c2ccccc2CCC3)cc1 (configuration not stated)", "inhibition, %": 9.65}
{"Compound": "Clc1ccc(SCCn2ccnc2)cc1", "inhibition, %": 71.2}

# inhibition of Cc1cc(OCCCn2ccnc2)cc(C)c1Cl = -6.72

Lookup result for CCOc1ccc(C(=O)NC2CCN(C(=O)Nc3ccc(F)cc3)CC2)cc1 ; measured inhibition: -4.31

Consider COc1ccc(S(=O)(=O)N2CCC(C(=O)NCCOc3ccccc3F)CC2)cc1OC . Its measured inhibition is 24.4

Form: compound = C/C(=N\Nc1ncc(Cl)cc1Cl)c1ccc(OC(F)F)cc1 ; inhibition = 66.3

Value of inhibition reported for the compound Cc1cc(OCCCn2ccnc2)ccc1[N+](=O)[O-] is 39.3

Lab note: C=CCc1cc(Cl)ccc1OCCn1ccnc1 gave inhibition of 31.9

Kindly note the recorded inhibition for Cc1cc(C)cc(OCCCn2ccnc2)c1 , which is 76

Quick note, inhibition for COc1ccc(C(=O)Nc2ccccc2NC(=O)c2ccc(OC)cc2)cc1 landed at -3.72

compound Clc1ccc(SCCCCn2cncn2)cc1 , inhibition observed: 26.1
